This collection of values is drawn from ChEMBL document CHEMBL5257094.

# procedure details: Stability of compound in phosphate buffer at 7.4 assessed as drug degradation incubated for 1 hr by HPLC analysis
# Assay type: physicochemical
# condition parameters: buffer, pH 7.4, 1 h
readout: Stability

NCCc1cc(O)c(O)cc1C(=O)O    Stable
N#CCCc1ccc(O)c(O)c1    Unstable
N#Cc1ccc(O)c(O)c1    Stable
N#CCCc1cc(O)c(O)cc1[N+](=O)[O-]    Stable
NCCc1ccc(O)c(O)c1 [DOPAMINE]    Stable
NCCc1cc(O)c(O)cc1Br    Stable
N#CCc1ccc(O)c(O)c1    Stable
Oc1cc2c(cc1O)CNCC2    Unstable
N#Cc1cc(O)c(O)cc1CCN    Stable

Would you kindly look at the next entry?
Problem: Dear colleague, I am looking for the recorded Stability of the following compound: NCCc1cc(O)c(O)cc1[N+](=O)[O-]
Result: Stable
